Listing of recorded z-score by entry.
Experiment: Primary imaging screen for DUSP6 inhibitors that restore phospho-Erk in transfected HeLa cells, chemical complementation (AID 609)
Conditions: HeLa MKP-3 transfected, phospho-Erk imaging KS statistic; measured here: cell density z-score; at 10 µM; cells stimulated with TPA for 15 min
parameter measured: z-score

- smiles record: "CCOC(=O)c1cc2c(=O)n3cccc(C)c3nc2n(CCc2ccccc2)c1=N"
  value measured: -0.746
- smiles record: "COc1ccc(OCC(=O)OCCN(C)C)cc1"
  value measured: -1.95
- smiles record: "Cc1cc(C)n(C(=O)CNC(=O)c2ccc3c(c2)OCCO3)n1"
  value measured: 1.78
- smiles record: "C[C@]12C=CC(=O)C=C1CC[C@H]1[C@@H]3C[C@@H](O)[C@](O)(C(=O)CO)[C@@]3(C)C[C@H](O)[C@@]12F"
  value measured: -0.539
- smiles record: "CC[C@H]1CN2CCc3cc(OC)c(OC)cc3[C@@H]2C[C@@H]1C[C@H]1NCCc2cc(OC)c(OC)cc21"
  value measured: 0.501
